Tested on: A498
Assay: minimum viability across doses, drug + dasatinib, relative to DMSO (fraction); higher = less growth inhibition
Settings: treatment: drug + dasatinib (fixed dose, not stated); 5 days
Collected minimum viability across doses values appear next to each entry.

compound	minimum viability across doses
CNC(=O)c1ccc(-c2cnc3ncc(Cc4ccc5ncccc5c4)n3n2)cc1F + Cc1nc(Nc2ncc(C(=O)Nc3c(C)cccc3Cl)s2)cc(N2CCN(CCO)CC2)n1 [dasatinib]	0.918
Nc1ncnc2c1c(-c1cnc3[nH]ccc3c1)nn2C1CCCC1 [PP-121] + Cc1nc(Nc2ncc(C(=O)Nc3c(C)cccc3Cl)s2)cc(N2CCN(CCO)CC2)n1 [dasatinib]	0.0684
COc1cc2c(Nc3ccc(Br)cc3F)ncnc2cc1OCC1CCN(C)CC1 [Vandetanib (Zactima)] + Cc1nc(Nc2ncc(C(=O)Nc3c(C)cccc3Cl)s2)cc(N2CCN(CCO)CC2)n1 [dasatinib]	0.366
CC(C)c1cnn2c(NCc3ccccc3)cc(NCCCCCCN)nc12.Cl [BS-181 HCl] + Cc1nc(Nc2ncc(C(=O)Nc3c(C)cccc3Cl)s2)cc(N2CCN(CCO)CC2)n1 [dasatinib]	0.942
O=C1C(=O)N(Cc2ccc(Cl)c(Cl)c2)c2ccccc21 [Apoptosis Activator 2] + Cc1nc(Nc2ncc(C(=O)Nc3c(C)cccc3Cl)s2)cc(N2CCN(CCO)CC2)n1 [dasatinib]	0.411
